These entries and their values trace back to patent EP4772193A1.

Target: T1, recombinant human soluble gpNMB (recombinant human gpNMB-FLAG-His) (human, UniProt Q14956 23-498)
T1 sequence: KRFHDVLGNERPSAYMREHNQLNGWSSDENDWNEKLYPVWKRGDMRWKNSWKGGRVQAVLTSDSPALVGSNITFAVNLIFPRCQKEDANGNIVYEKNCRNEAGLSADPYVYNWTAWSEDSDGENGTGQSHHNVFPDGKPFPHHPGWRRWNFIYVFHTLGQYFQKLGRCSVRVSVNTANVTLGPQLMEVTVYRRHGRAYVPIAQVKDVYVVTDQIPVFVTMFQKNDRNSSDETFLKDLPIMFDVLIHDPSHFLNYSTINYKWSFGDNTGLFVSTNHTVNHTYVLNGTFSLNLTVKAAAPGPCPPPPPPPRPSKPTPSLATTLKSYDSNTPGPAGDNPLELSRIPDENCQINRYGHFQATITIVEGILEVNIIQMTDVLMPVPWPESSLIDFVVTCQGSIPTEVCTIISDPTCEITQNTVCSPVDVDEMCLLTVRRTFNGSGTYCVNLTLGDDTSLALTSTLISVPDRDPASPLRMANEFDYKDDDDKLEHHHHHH
Assay: antigen ELISA
Consider the following binders and their measured EC50 readings.
Field format: number, assumed nM, no unit text.

Output measured EC50 for this item: hGPN18-2_H2L3 VH T100A (antibody, V domains shown) VH: QVQLVQSGPGLVQPTQTLTLTCSFSGFSLSTSVMGVGWIRQPSGKGLEWLADIWWDDDKDYNPSLKSRLTISKDTSKNQVVLTMTNMDTVDTATYYCARAYYSNYEYYGMDYWGQGTLVTVSS VL: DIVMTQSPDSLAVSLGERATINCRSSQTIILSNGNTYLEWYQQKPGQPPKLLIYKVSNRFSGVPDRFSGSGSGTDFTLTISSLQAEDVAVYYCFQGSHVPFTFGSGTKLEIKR
8.44

Output measured EC50 for this item: hGPN18-2_H2L3 VH R99A (antibody, V domains shown) VH: QVQLVQSGPGLVQPTQTLTLTCSFSGFSLSTSVMGVGWIRQPSGKGLEWLADIWWDDDKDYNPSLKSRLTISKDTSKNQVVLTMTNMDTVDTATYYCAATYYSNYEYYGMDYWGQGTLVTVSS VL: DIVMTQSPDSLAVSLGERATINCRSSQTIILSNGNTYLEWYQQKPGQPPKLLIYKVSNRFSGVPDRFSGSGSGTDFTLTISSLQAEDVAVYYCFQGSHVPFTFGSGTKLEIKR
10.6

Output measured EC50 for this item: hGPN18-2_H2L3 VH Y101A (antibody, V domains shown) VH: QVQLVQSGPGLVQPTQTLTLTCSFSGFSLSTSVMGVGWIRQPSGKGLEWLADIWWDDDKDYNPSLKSRLTISKDTSKNQVVLTMTNMDTVDTATYYCARTAYSNYEYYGMDYWGQGTLVTVSS VL: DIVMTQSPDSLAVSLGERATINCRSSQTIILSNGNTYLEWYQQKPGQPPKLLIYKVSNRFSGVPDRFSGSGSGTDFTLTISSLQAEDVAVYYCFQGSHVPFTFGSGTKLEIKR
7.68

Output measured EC50 for this item: hGPN18-2_H2L3 VH G109A (antibody, V domains shown) VH: QVQLVQSGPGLVQPTQTLTLTCSFSGFSLSTSVMGVGWIRQPSGKGLEWLADIWWDDDKDYNPSLKSRLTISKDTSKNQVVLTMTNMDTVDTATYYCARTYYSNYEYYAMDYWGQGTLVTVSS VL: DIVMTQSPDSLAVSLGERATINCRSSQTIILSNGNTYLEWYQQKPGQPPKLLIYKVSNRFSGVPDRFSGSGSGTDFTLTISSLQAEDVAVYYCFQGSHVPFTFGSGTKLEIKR
10.5
